The origin of these recorded values is ChEMBL document CHEMBL1132341.

Task for the reader: assign each of the following compounds its reported IC50.
System: SK-N-SH
Assay: Inhibition of [3H]NE uptake into human SK-N-SH-SY5Y Neuroblastoma cells
Format: functional, cell-based

Use the examples below as a reference point.
INSERT INTO results (mol, measuredendpoint, recordedmeasurement) VALUES
  ('N=C(N)NCCN1c2ccccc2C=Cc2ccccc21', 'IC50', '30 nM'),
  ('CCOC(=O)[C@@H]1[C@H](OS(=O)(=O)c2cccc3c(N(C)C)cccc23)C[C@H]2CC[C@@H]1N2C', 'IC50', '60 nM');

What value of measured IC50 is listed for N=C(N)NCc1ccc(/C=C/c2ccccc2)cc1 ?
120 nM

----------
Tested on: SK-N-SH
Assay: Inhibition of [3H]NE uptake into human SK-N-SH-SY5Y Neuroblastoma cells
Type: functional, cell-based
Label criterion met when IC50 is strictly below 800 nM; otherwise label criterion not met.

Below are worked cases with known answers.
INSERT INTO measurements (molecule, classname) VALUES
  ('CNCCC(/N=C(\S)Nc1ccc(/N=N/c2ccc(N(C)C)cc2)cc1)c1ccccc1 (stereo not given)', 'criterion not met'),
  ('N=C(N)NCc1cccc2ccccc12', 'criterion met'),
  ('CNCCC(NS(=O)(=O)c1cccc2c(N(C)C)cccc12)c1ccccc1 (stereo not given)', 'criterion met'),
  ('CCOC(=O)[C@@H]1[C@H](O/C(S)=N/c2ccc(/N=N/c3ccc(N(C)C)cc3)cc2)C[C@H]2CC[C@@H]1N2C', 'criterion not met');

IC50 under 800 nM? Item: CNCCC(Nc1ccc([N+](=O)[O-])c2nonc12)c1ccccc1 (stereo not given)
criterion not met
